Just for reference, PubChem BioAssay (EPA / NIEHS) is where these values come from.

target: human Serotonin, 5-Hydroxytryptamine Receptor 2A (5HT2A), HTR2A (gene 3356) (UniProt P28223); test: NVS_GPCR_h5HT2A: NovaScreen (NVS) G Protein-Coupled Receptor Assay for human Serotonin, 5-Hydroxytryptamine Receptor 2A (5HT2A) (AID 2283249)
Sequence (P28223 whole entry, looked up): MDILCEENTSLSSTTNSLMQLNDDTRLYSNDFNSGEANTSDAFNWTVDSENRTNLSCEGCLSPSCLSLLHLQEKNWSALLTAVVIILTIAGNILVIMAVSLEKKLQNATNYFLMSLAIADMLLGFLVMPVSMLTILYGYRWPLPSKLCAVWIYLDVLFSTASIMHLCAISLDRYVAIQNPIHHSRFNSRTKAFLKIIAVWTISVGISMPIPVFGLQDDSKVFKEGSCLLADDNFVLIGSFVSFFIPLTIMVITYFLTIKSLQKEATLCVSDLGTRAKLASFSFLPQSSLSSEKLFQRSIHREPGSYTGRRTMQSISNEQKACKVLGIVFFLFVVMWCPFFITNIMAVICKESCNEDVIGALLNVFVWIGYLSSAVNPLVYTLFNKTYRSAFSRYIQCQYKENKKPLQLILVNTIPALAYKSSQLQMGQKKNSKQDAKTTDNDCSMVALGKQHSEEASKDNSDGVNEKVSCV
Results filed as inconclusive are left out. Active and inactive are the calls of the source. How the source made its calls: active means hit-call score of the fitted dose curve at least 0.9, where 1 is the maximum; inconclusive means response in the unintended direction; inactive means score below 0.9.
Classes used: Y (active), N (inactive)

compound | assigned label
CN(C)C(=O)NC1(c2ccccc2)CCN(CC[C@@]2(c3ccc(F)c(F)c3)CN(C(=O)c3ccccc3)CCO2)CC1 | Y
Cc1occc(=O)c1O | N
C=CCc1ccc(OC)c(OC)c1 | N
CCC(C)N(C)C(=O)c1cc2ccccc2c(-c2ccccc2Cl)n1 (stereo not drawn) | N
CC(=O)O | N
O=C(N[C@@H](c1ccccc1)[C@@H]1CCCCN1)c1cccc(C(F)(F)F)c1Cl | Y
CC(C)(O)c1ccc(CNC(=O)c2cccnc2Oc2ccc(F)cc2)cc1 | N
CN(C)C(=O)NC1(c2ccccc2)CCN(CCC[C@]2(c3ccc(Cl)c(Cl)c3)CCCN(C(=O)c3ccccc3)C2)CC1 | N

---

target: human Janus Kinase 2 (Jak2), JAK2 (gene 3717) (UniProt O60674); assay: NVS_ENZ_hJak2: NovaScreen (NVS) Enzymatic Assay for human Janus Kinase 2 (Jak2) (AID 2283169)
Sequence (O60674 whole entry, looked up): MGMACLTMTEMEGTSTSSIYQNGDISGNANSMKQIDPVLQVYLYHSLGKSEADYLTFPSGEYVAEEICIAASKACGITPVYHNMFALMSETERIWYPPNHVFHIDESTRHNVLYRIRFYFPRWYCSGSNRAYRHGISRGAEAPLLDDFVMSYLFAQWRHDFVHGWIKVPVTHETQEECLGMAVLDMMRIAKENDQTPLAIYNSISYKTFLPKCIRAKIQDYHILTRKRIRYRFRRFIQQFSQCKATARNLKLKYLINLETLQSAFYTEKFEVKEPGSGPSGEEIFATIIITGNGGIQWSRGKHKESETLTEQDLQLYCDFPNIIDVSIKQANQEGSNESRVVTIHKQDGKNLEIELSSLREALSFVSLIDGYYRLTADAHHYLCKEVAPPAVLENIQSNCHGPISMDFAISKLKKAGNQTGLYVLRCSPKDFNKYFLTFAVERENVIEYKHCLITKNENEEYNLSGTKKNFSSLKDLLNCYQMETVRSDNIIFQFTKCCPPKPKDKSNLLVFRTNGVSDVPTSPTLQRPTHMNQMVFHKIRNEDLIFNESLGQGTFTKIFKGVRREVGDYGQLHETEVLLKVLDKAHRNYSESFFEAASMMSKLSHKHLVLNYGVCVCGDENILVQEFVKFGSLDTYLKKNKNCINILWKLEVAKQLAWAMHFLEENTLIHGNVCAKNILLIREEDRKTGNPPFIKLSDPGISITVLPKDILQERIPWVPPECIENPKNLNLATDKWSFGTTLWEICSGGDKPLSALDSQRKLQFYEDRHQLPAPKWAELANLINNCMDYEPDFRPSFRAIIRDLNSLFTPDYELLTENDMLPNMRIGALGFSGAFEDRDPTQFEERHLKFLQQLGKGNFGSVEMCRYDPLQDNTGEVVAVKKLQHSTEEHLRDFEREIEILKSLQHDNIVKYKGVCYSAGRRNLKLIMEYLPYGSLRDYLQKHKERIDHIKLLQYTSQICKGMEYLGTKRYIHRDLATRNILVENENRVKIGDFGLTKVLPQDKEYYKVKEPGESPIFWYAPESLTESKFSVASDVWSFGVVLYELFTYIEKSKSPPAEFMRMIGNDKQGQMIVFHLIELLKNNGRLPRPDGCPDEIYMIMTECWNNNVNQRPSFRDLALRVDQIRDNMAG
Inconclusive results are not listed. The source made the active and inactive calls. Rule for the calls: active = hit-call score of the fitted dose curve at least 0.9, where 1 is the maximum; inconclusive = response in the unintended direction; inactive = score below 0.9.
parameter measured: outcome

smiles | target entity | parameter measured | result
CCCCCCCCCCCCCCCCO | human Janus Kinase 2 (Jak2), JAK2 (gene 3717) (UniProt O60674) | outcome | inactive
O=C1NC(=O)C(c2ccccc2)(c2ccccc2)N1 | human Janus Kinase 2 (Jak2), JAK2 (gene 3717) (UniProt O60674) | outcome | inactive
O=C(O)CC(O)(CC(=O)O)C(=O)O | human Janus Kinase 2 (Jak2), JAK2 (gene 3717) (UniProt O60674) | outcome | inactive
O=C(Oc1ccccc1)c1cccc(C(=O)Oc2ccccc2)c1 | human Janus Kinase 2 (Jak2), JAK2 (gene 3717) (UniProt O60674) | outcome | inactive

---

read-out: Vascular cell adhesion molecule 1 (VCAM1), VCAM1 (gene 7412); assay: BSK_LPS_VCAM1: BioMAP Diversity Plus: LPS Assay for Vascular cell adhesion molecule 1 (VCAM1) Biomarker Activity (AID 2283086); conditions: primary human HUVEC with PBMC; actives raise or lower the signal
Active and inactive are the calls of the source. How the source made its calls: active means hit-call score of the fitted dose curve at least 0.9, where 1 is the maximum; inactive means score below 0.9.
Classes used: TRUE for active, FALSE for inactive

compound | assigned label
C#CC(O)C(CC)CCCC (stereo not drawn) | FALSE
O=C(O)c1[nH]n(-c2ccc(S(=O)(=O)O)cc2)c(=O)c1N=Nc1ccc(S(=O)(=O)O)cc1 | FALSE
CCOCCOCCO | FALSE
CCCCCCCCCCCCCCCCO | FALSE
S=c1[nH]c2ccccc2s1 | FALSE
O=C(NS(=O)(=O)/C=C/c1cccs1)c1ccc(F)cc1Br | FALSE
CN(C)CCCN1c2ccccc2Sc2ccc(Cl)cc21 | TRUE
COc1ccc(OC(F)(F)F)cc1CN[C@H]1CCCN[C@H]1c1ccccc1 | TRUE
O=C(Oc1ccccc1)c1cccc(C(=O)Oc2ccccc2)c1 | FALSE
Cc1ccc(-c2cc(C(F)(F)F)nn2-c2ccc(S(N)(=O)=O)cc2)cc1 | TRUE
c1ccc2occc2c1 | FALSE
Cc1c(C)c2c(c(C)c1O)CCC(C)(COc1ccc(CC3SC(=O)NC3=O)cc1)O2 (stereo not drawn) | TRUE
CN(C)CCCN(C)CCCN(C)C | FALSE
